System: Klebsiella aerogenes DSM 30053
measurement-description: fold change of Putrescine concentration vs plate DMSO controls (fold change (ratio)); higher = more amine produced, active = hit call of the paper (significant change in both replicates, either direction)
run-parameters: 20 µM; incubation time: 27 h, anaerobic, 37 °C
Counter-ions that a name gives are not always drawn.
endpoint: fold change of Putrescine concentration
One number for each entry.

CC(C)c1cccc(C(C)C)c1O [Propofol]: 1.01
NCC1(CC(=O)O)CCCCC1 [Gabapentin]: 1
COc1ccc(CCN2CCC(Nc3nc4ccccc4n3Cc3ccc(F)cc3)CC2)cc1 [Astemizole]: 0.988
CC(NC(C)(C)C)C(=O)c1cccc(Cl)c1 (stereo not given) [Bupropion hydrochloride]: 0.995

Please examine the following record next.
Value wanted: fold change of Putrescine concentration (Klebsiella aerogenes DSM 30053) of entry CC(=O)O[C@H]1C[C@H](O[C@H]2[C@@H](O)C[C@H](O[C@H]3[C@@H](O)C[C@H](O[C@H]4CC[C@@]5(C)[C@H](CC[C@@H]6[C@@H]5C[C@@H](O)[C@]5(C)[C@@H](C7=CC(=O)OC7)CC[C@]65O)C4)O[C@@H]3C)O[C@@H]2C)O[C@H](C)[C@H]1O[C@@H]1O[C@H](CO)[C@@H](O)[C@H](O)[C@H]1O [Lanatoside C]
0.991

----------
Could you please report measured fold change of Tryptamine concentration for the items listed next?
Test system: Clostridium sporogenes DSM 1664
measurement-description: fold change of Tryptamine concentration vs plate DMSO controls (fold change (ratio)); higher = more amine produced, active = hit call of the paper (significant change in both replicates, either direction)
run-parameters: 20 µM; incubation time: 27 h, anaerobic, 37 °C
Where a name gives a salt, the structure may show the parent alone.
Numbers only.

C[C@]12C=CC(=O)C=C1CC[C@@H]1[C@@H]2CC[C@@]2(C)[C@H]1CC[C@]2(C)O: 0.98
COC(=O)NC(=S)Nc1ccccc1NC(=S)NC(=O)OC: 1.02

Please examine the following record next.
# lookup: fold change of Tryptamine concentration of CN1C(=O)COc2c(C(=O)NC3CN4CCC3CC4)cc(Cl)cc21 (stereo not drawn) [Azasetron hydrochloride]
0.992

----------
System: Ruminococcus gnavus DSM 108212
measurement-description: fold change of 2-Phenylethylamine concentration vs plate DMSO controls (fold change (ratio)); higher = more amine produced, active = hit call of the paper (significant change in both replicates, either direction)
run-parameters: 20 µM; incubation time: 27 h, anaerobic, 37 °C
Counter-ions that a name gives are not always drawn.
Classification field: enter satisfied for fold change of 2-Phenylethylamine concentration values not below 1, not satisfied for values below it.

Some entries whose results are on file:
OC(Cn1cncn1)(c1ccc(F)cc1)c1ccccc1F (stereo not drawn): not satisfied
CC(C)(C)NCC(O)c1ccccc1Cl (stereo not drawn) [Tulobuterol Hydrochloride]: satisfied
Oc1ccc(C(c2ccc(O)cc2)(C(F)(F)F)C(F)(F)F)cc1: not satisfied
CC(N)C(O)c1ccccc1 (stereo not drawn) [Phenylpropanolamine hydrochloride]: satisfied
CCN(CC)C(C)C(=O)c1ccccc1 (stereo not drawn) [Amfepramone hydrochloride]: satisfied

Hi team, for CC1(C)[C@H](/C=C(\Cl)C(F)(F)F)[C@@H]1C(=O)OC(C#N)c1cccc(Oc2ccccc2)c1 (stereo partly drawn) , is the recorded fold change of 2-Phenylethylamine concentration at or above 1?
satisfied

Hi team, for `COc1ccc(-c2ccccc2)cc1NNC(=O)OC(C)C` , is the recorded fold change of 2-Phenylethylamine concentration at or above 1?
not satisfied

Hi team, for N#CC(CCc1ccc(Cl)cc1)(Cn1cncn1)c1ccccc1 (stereo not drawn) , is the recorded fold change of 2-Phenylethylamine concentration at or above 1?
satisfied

Hi team, for `CN1C[C@H](CNC(=O)OCc2ccccc2)C[C@@H]2c3cccc4c3c(cn4C)C[C@H]21` , is the recorded fold change of 2-Phenylethylamine concentration at or above 1?
not satisfied

Hi team, for `CNC(=O)/C=C(\C)OP(=O)(OC)OC` , is the recorded fold change of 2-Phenylethylamine concentration at or above 1?
satisfied

----------
System: Escherichia coli IAI1
measurement-description: fold change of Putrescine concentration vs plate DMSO controls (fold change (ratio)); higher = more amine produced, active = hit call of the paper (significant change in both replicates, either direction)
run-parameters: 20 µM; incubation time: 27 h, anaerobic, 37 °C
Where a name gives a salt, the structure may show the parent alone.
endpoint: fold change of Putrescine concentration

CCC(=O)Nc1ccc(Cl)c(Cl)c1: 1.01 (inactive)
CN(C)C(=O)Oc1cc(OC(=O)N(C)C)cc(C(O)CNC(C)(C)C)c1 (stereo unspecified) [Bambuterol hydrochloride]: 0.988 (inactive)
CN1C[C@H](C(=O)N[C@]2(C)O[C@@]3(O)[C@@H]4CCCN4C(=O)[C@H](Cc4ccccc4)N3C2=O)C[C@@H]2c3cccc4[nH]cc(c34)C[C@H]21 [Dihydroergotamine tartrate]: 1.06 (inactive)
CO/C=C(/C(=O)OC)c1ccccc1Oc1cc(Oc2ccccc2C#N)ncn1: 1.04 (inactive)
CC(C)N(C(=O)COc1nnc(C(F)(F)F)s1)c1ccc(F)cc1: 1 (inactive)
Cc1cc(C(C#N)c2ccc(Cl)cc2)c(Cl)cc1NC(=O)c1cc(I)cc(I)c1O (stereo unspecified) [Closantel]: 1.19 (inactive)

Below are some molecules; for each one, tell me its fold change of Putrescine concentration.
1. CS(=O)(=O)c1ccc(C(=O)C2C(=O)CCCC2=O)c([N+](=O)[O-])c1
2. C#CCOc1ccc(CCNC(=O)C(OCC#C)c2ccc(Cl)cc2)cc1OC (stereo unspecified)

1. 0.929 (inactive)
2. 1.05 (inactive)

Below are some molecules; for each one, tell me its fold change of Putrescine concentration.
1. CC(C)N1C(=O)c2ccccc2NS1(=O)=O
2. CO[C@]12C[C@@H](COC(=O)c3cncc(Br)c3)CN(C)[C@@H]1Cc1cn(C)c3cccc2c13 [Nicergoline]
3. CCOP(=S)(OCC)Oc1cc(C)nc(C(C)C)n1

["0.969 (inactive)", "0.98 (inactive)", "1 (inactive)"]

----------
Could you please report measured fold change of 2-Phenylethylamine concentration for the items listed next?
System: Ruminococcus gnavus DSM 108212
measurement-description: fold change of 2-Phenylethylamine concentration vs plate DMSO controls (fold change (ratio)); higher = more amine produced, active = hit call of the paper (significant change in both replicates, either direction)
run-parameters: 20 µM; incubation time: 27 h, anaerobic, 37 °C
Give bare numbers.

// below: answered molecules
CC(C)(C)c1ccc(CSc2cnn(C(C)(C)C)c(=O)c2Cl)cc1: 0.948
Nc1c(Cl)c(F)nc(OCC(=O)O)c1Cl: 1.05

Below are some molecules; for each one, tell me its fold change of 2-Phenylethylamine concentration.
1. O=C(NC(=O)c1c(F)cccc1F)Nc1ccc(Cl)cc1
2. C#CCN1C(=O)COc2cc(F)c(N3C(=O)C4=C(CCCC4)C3=O)cc21
3. O=C(NCCc1ncc(C(F)(F)F)cc1Cl)c1ccccc1C(F)(F)F
4. CC(C)(C)C(O)(CCc1ccc(Cl)cc1)Cn1cncn1 (stereo unspecified)

0.98
0.969
1.02
1.15

----------
Test system: Ruminococcus gnavus DSM 108212
measurement-description: fold change of Tryptamine concentration vs plate DMSO controls (fold change (ratio)); higher = more amine produced, active = hit call of the paper (significant change in both replicates, either direction)
run-parameters: 20 µM; incubation time: 27 h, anaerobic, 37 °C
Counter-ions that a name gives are not always drawn.
endpoint: fold change of Tryptamine concentration

CC[C@@H](CO)NC(=O)[C@@H]1C=C2c3cccc4[nH]cc(c34)C[C@H]2N(C)C1 [Methylergometrine maleate]: 1.02 (inactive)
Cc1cccc(C)c1NC1=NCCCS1: 1 (inactive)

Below are some molecules; for each one, tell me its fold change of Tryptamine concentration.
1. CN1C(=O)COc2c(C(=O)NC3CN4CCC3CC4)cc(Cl)cc21 (centres undefined) [Azasetron hydrochloride]
2. C=CCN1CC[C@]23c4c5ccc(O)c4O[C@H]2C(=O)CC[C@@]3(O)[C@H]1C5 [Naloxone hydrochloride]

1.02 (inactive)
0.998 (inactive)

----------
Test system: Klebsiella aerogenes DSM 30053
measurement-description: growth (OD595) fold change vs plate DMSO controls (fold change (ratio)); higher = more growth
run-parameters: 20 µM; incubation time: 27 h, anaerobic, 37 °C
Could you please report measured growth for the items listed next?
One number for each entry.

// below: answered molecules
CCCC(C)(COC(N)=O)COC(=O)NC(C)C (stereo unspecified): 1.01
O=C(NC(=O)c1c(F)cccc1F)Nc1ccc(OC(F)(F)C(F)OC(F)(F)F)c(Cl)c1 (stereo unspecified): 1.01
C[C@]12CC[C@@H]3c4ccc(OC(=O)N(CCCl)CCCl)cc4CC[C@H]3[C@@H]1CC[C@@H]2O: 0.983
CCCC(C)C1(CC)C(=O)NC(=O)NC1=O (stereo unspecified): 0.979
C#CCN1C(=O)COc2cc(F)c(N3C(=O)C4=C(CCCC4)C3=O)cc21: 1

Below are some molecules; for each one, tell me its growth.
1. O=[N+]([O-])/N=C1\NCCN1Cc1ccc(Cl)nc1
2. C[N+]12CCC(CC1)C(OC(=O)C(O)(c1ccccc1)c1ccccc1)C2 (stereo unspecified) [Clidinium bromide]
3. CCCCc1c(C)nc(NCC)nc1OS(=O)(=O)N(C)C
4. CCC(=O)O[C@@](Cc1ccccc1)(c1ccccc1)[C@@H](C)CN(C)C [Levopropoxyphene napsylate]
5. CNC(=O)/C=C(\C)OP(=O)(OC)OC
6. O=C(O)COc1ccc(Cl)cc1Cl

[0.996, 1.07, 0.957, 1.05, 1.01, 1.07]
